Values compiled from patent US4430343A.

PROCEDURE TEXT: in vivo
APPLIED CONDITIONS: mouse, ddY male mice, oral, observed one week, Weil's method, read-out: Acute toxicity LD50
Counter-ions that a name gives are not always drawn.
Kindly apply the following: yes if LD50 at 168 h is less than 1000 mg/kg, no in every other case.

Below, 5 molecules whose answers are already recorded.
{"MOLECULE": "C=CCOCCn1c(N2CCN(C)CC2)nc2ccccc21", "CLASS LABEL": "no"}
{"MOLECULE": "CCCOCCn1c(N2CCN(C)CC2)nc2ccccc21", "CLASS LABEL": "no"}
{"MOLECULE": "CN1CCCN(C(c2ccccc2)c2ccc(Cl)cc2)CC1 (centres unmarked) [Homochlorcyclizine hydrochloride, reference compound]", "CLASS LABEL": "yes"}
{"MOLECULE": "CCCOCCn1c(N2CCCN(C)CC2)nc2ccccc21 [Example 7, difumarate]", "CLASS LABEL": "yes"}
{"MOLECULE": "CCOCCn1c(N2CCN(C)CC2)nc2ccccc21", "CLASS LABEL": "no"}

Query: Strictly below 1000 mg/kg in LD50 at 168 h? `CCOCCn1c(N2CCN(CC)CC2)nc2ccccc21`
Result: no

---

Entries and their LD50 at 168 h values follow.
PROCEDURE TEXT: in vivo
APPLIED CONDITIONS: mouse, ddY male mice, oral, observed one week, Weil's method, read-out: Acute toxicity LD50
Dear colleague, please return just the value in mg/kg, with no unit written.

{"MOLECULE": "CN1CCN(c2nc3ccccc3n2CCOc2ccccc2)CC1", "RESULT UNITS": "mg/kg", "RECORDED NUMBER": 1110}

Query: Need LD50 at 168 h of C=CCOCCn1c(N2CCCN(C)CC2)nc2ccccc21 [Example 6, difumarate] , thanks.
Result: 904

Query: Recorded LD50 at 168 h for `C#CCOCCn1c(N2CCN(C)CC2)nc2ccccc21` , please?
Result: 818

Query: Name the recorded LD50 at 168 h for `CCOCCn1c(N2CCCN(C)CC2)nc2ccccc21` .
Result: 628

Query: What value of measured LD50 at 168 h is listed for `CCOCCn1c(N2CCNCC2)nc2ccccc21` ?
Result: 2220
